The origin of these recorded values is PubChem BioAssay AID1347414.

test: qHTS to identify inhibitors of the type 1 interferon - major histocompatibility complex class I in skeletal muscle: Secondary screen by immunofluorescence; settings: C25cl48 myoblasts, IFN-b induced HLA-ABC immunofluorescence, 24 h, Viability; series mostly up to 49.8 µM; note: nearly all actives have a fitted effect of over 70% in size
Records with an inconclusive call do not appear. Active and inactive are the calls of the source. Calls come from the whole dose curve; as a rule, active = well fitted inhibition curve with a large enough effect; inconclusive = small, poorly fitted or top-dose-only effect; inactive = no such curve, though single readings can be large or run the other way.
Your response should consist of one outcome taken from Yes for active, No for inactive

Fill in: this test's call for `CCCCC(=O)OCC(=O)[C@H]1[C@H](C)C[C@H]2[C@@H]3C[C@H](F)C4=CC(=O)C=C[C@]4(C)[C@@]3(F)[C@@H](O)C[C@@]21C` is ___ No

Would you kindly repeat that for `CCOC(=O)N1CCN(/[N+]([O-])=N/Oc2ccc([N+](=O)[O-])cc2[N+](=O)[O-])CC1` ? Yes

Would you kindly repeat that for `CCCCc1nc2cc(/C=C/C(=O)NO)ccc2n1CCN(CC)CC` ? No
